biological target: KRAS G12D (Homo sapiens, UniProt P01116, G12D); assay: SOS-catalyzed nucleotide exchange assay, KRAS G12D (Procedure A); assay type: biochemical; details: guanine nucleotide exchange (GNE)
Sequence (P01116 with tags, fused parts or gaps isoform P01116-2 G12D): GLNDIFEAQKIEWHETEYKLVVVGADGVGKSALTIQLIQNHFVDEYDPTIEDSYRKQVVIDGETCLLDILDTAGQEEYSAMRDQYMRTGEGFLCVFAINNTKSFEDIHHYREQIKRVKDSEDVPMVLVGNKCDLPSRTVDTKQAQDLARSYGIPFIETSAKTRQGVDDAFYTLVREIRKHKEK
pIC50: −log10 of the molar value.
observedProperty: pIC50

molecule=N#Cc1c(N)sc2c(F)ccc(-c3nccc4c3sc3nc(OC[C@@]56CCCN5C[C@H](F)C6)nc(N5C[C@H]6CC[C@@H](C5)N6)c34)c12 reportedresult=7.62
molecule=C#Cc1c(F)ccc2cc3[nH]ncc3c(-c3nccc4c3sc3nc(OC[C@]5(CN6CCN(C(C)=O)CC6)CC5(F)F)nc(N5C[C@H]6CC[C@@H](C5)N6)c34)c12 reportedresult=7.91
molecule=C#Cc1c(F)ccc2cc(N)nc(-c3nccc4c5c(N6C[C@H]7CC[C@@H](C6)N7)nc(OC[C@@]67CCCN6C[C@H](F)C7)nc5n(C)c34)c12 reportedresult=7.29
molecule=F[C@H]1CN2CCC[C@@]2(COc2nc(N3C[C@H]4CC[C@@H](C3)N4)c3c(n2)sc2c(-c4c(C5CC5)c(C(F)(F)F)cc5[nH]ncc45)nccc23)C1 reportedresult=8.45
molecule=Nc1nc2c(-c3nccc4c3sc3nc(OC[C@@]56CCCN5C[C@H](F)C6)nc(N5C[C@H]6CC[C@@H](C5)N6)c34)ccc(F)c2s1 reportedresult=6.55

a: CCOC1(COc2nc(N3C[C@H]4CC[C@@H](C3)N4)c3c(n2)sc2c(-c4c(C(F)(F)F)c(C)cc5[nH]ncc45)nccc23)CCOC1 (some centres unmarked)
b: Cc1cc2[nH]ncc2c(-c2nccc3c2oc2nc(OC[C@@]45CCCN4C[C@H](F)C5)nc(N4C[C@H]5CC[C@@H](C4)N5)c23)c1C(F)(F)F
Lookup: Which entry shows the lesser value of pIC50 here, a or b ? To answer, give the label that identifies your chosen option.
Found: a

---

target: AsPC-1 cells (Homo sapiens, UniProt P01116, G12D); construct: p-ERK/total ERK AlphaSureFire read-out; experiment: Cellular phospho-ERK assay, AsPC-1 cells (KRAS G12D); settings: 2 hours, read-out: AsPC1 pERK IC50
Sequence (P01116 1-188 isoform P01116-2 G12D): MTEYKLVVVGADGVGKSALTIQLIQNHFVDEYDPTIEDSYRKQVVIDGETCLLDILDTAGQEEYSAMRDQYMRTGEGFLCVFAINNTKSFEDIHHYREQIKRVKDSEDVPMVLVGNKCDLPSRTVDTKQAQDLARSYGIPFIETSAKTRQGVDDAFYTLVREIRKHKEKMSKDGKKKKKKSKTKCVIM
observedProperty: IC50 (µM)

compound=Cc1cc2[nH]ncc2c(-c2nccc3c2sc2nc(OCC4(S(C)(=O)=O)CC4)nc(N4C[C@H]5CC[C@@H](C4)N5)c23)c1C(F)(F)F reportedresult=20.2

a: C#Cc1c(F)ccc2cc3[nH]ncc3c(-c3nccc4c3sc3nc(OCC5(CN(C)C)COC5)nc(N5C[C@H]6CC[C@@H](C5)N6)c34)c12
b: Cc1cc2[nH]ncc2c(-c2nccc3c2sc2nc(OCC4COC(C)(C)CO4)nc(N4C[C@H]5CC[C@@H](C4)N5)c23)c1C(F)(F)F (stereo partly drawn)
Lookup: Compare the recorded IC50 of a and b ; state which is larger. Pick one and reply with its label.
Found: b

---

molecular target: KRAS G12V (Homo sapiens, UniProt P01116, G12V); test: SOS-catalyzed nucleotide exchange assay, KRAS G12V (Procedure A); assay type: biochemical; settings: GNE
Sequence (P01116 with tags, fused parts or gaps isoform P01116-2 G12V): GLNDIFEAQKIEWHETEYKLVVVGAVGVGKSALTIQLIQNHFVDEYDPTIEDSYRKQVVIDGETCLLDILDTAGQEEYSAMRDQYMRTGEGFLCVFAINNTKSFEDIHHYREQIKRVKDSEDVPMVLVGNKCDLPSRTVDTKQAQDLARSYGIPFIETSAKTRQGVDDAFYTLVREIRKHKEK
pIC50: −log10 of the molar value.
observedProperty: pIC50

compound="C#Cc1c(F)ccc2cc3[nH]ncc3c(-c3nccc4c3sc3nc(OCC56CCCC5N(C)CCC6)nc(N5C[C@H]6CC[C@@H](C5)N6)c34)c12 (stereo partly drawn)" reportedresult=7.05

P: Cc1cc2[nH]ncc2c(-c2nccc3c2sc2nc(OC[C@@]45CCCN4C[C@H](F)C5)nc(N4C[C@H]5C[C@@H]4CN5)c23)c1C(F)(F)F
Q: C#Cc1csc2cc3[nH]ncc3c(-c3nccc4c3sc3nc(OC[C@@]56CCCN5C[C@H](F)C6)nc(N5C[C@H]6CC[C@@H](C5)N6)c34)c12
Lookup: Parameter check: reported pIC50 is higher for which label, P or Q ? # respond with the chosen item's label
Found: Q

---

molecular target: KRAS G12D (Homo sapiens, UniProt P01116, G12D); experiment: SOS-catalyzed nucleotide exchange assay, KRAS G12D (Procedure A); assay type: biochemical; conditions: guanine nucleotide exchange (GNE)
observedProperty: IC50 (nM)

# annotated cases, reported IC50 shown
chemsmiles=Clc1cc2[nH]ncc2c(-c2nccc3c2sc2nc(OCC45CCOC(CO4)C5)nc(N4C[C@H]5CC[C@@H](C4)N5)c23)c1C1CC1 unit=nM reportedresult=2730
chemsmiles=Cc1cc2[nH]ncc2c(-c2nccc3c2sc2nc(OC[C@]4(CO)CC4(F)F)nc(N4C[C@H]5CC[C@@H](C4)N5)c23)c1OC(F)(F)Cl unit=nM reportedresult=724
chemsmiles=N#Cc1c(N)sc2c(F)ccc(-c3nccc4c3sc3nc(OC[C@]5(CO)CC5(F)F)nc(N5CC6CCC(C5)N6)c34)c12 unit=nM reportedresult=2690

1: Cc1cc2[nH]ncc2c(-c2nccc3c2sc2nc(OC[C@@]45CCCN4C[C@H](F)C5)nc(N4C[C@H]5C[C@@H]4CN5)c23)c1C(F)(F)F
2: C#Cc1csc2cc3[nH]ncc3c(-c3nccc4c3sc3nc(OC[C@@]56CCCN5C[C@H](F)C6)nc(N5C[C@H]6CC[C@@H](C5)N6)c34)c12
Lookup: Among 1 and 2 , which shows a numerically higher IC50 result? Your answer should be the label of the entry you select.
Found: 1
(1: 836 nM, 2: 1.92 nM)

---

Target: KRAS WT (Homo sapiens, UniProt P01116)
Sequence (P01116 with tags, fused parts or gaps isoform P01116-2): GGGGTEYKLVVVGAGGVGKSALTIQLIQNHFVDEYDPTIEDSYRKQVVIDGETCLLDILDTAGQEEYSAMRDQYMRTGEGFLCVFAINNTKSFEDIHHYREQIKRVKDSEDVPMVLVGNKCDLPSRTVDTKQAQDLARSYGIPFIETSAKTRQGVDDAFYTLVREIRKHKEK
Experiment: SOS-catalyzed nucleotide exchange assay, KRAS WT (Procedure A)
Type: biochemical
Settings: GNE
Procedure: Procedure for SOS-Catalyzed Nucleotide Exchange Assay for KRAS-WT, G12C/D/V, G13D, HRAS, and NRAS (Procedure A) Recombinant KRAS-G12C protein used in this assay has an additional triple mutation (C51S/C80L/C118S). […] The time-resolved fluorescence resonance energy transfer (TR-FRET) signal is measured on an Envision (PerkinElmer) plate reader: Excitation filter=340 nm; emission1=495 nm; emission2=520 nm; dichroic mirror=D400/D505; delay time=100 ms. […]
# reported IC50; entries follow

Known IC50 results, listed for orientation:
chemsmiles=C#Cc1csc2cc3[nH]ncc3c(-c3nccc4c3sc3nc(OC[C@@]56CCCN5C/C(=C\F)C6)nc(N5C[C@H]6CC[C@@H](C5)N6)c34)c12 observedproperty=IC50 reportedresult="0.0321 µM"
chemsmiles=Cn1c2nc(OC[C@]3(CO)CC3(F)F)nc(N3C[C@H]4CC[C@@H](C3)N4)c2c2ccnc(-c3c(F)cc(F)c4sc(N)c(C#N)c34)c21 observedproperty=IC50 reportedresult="> 11.1 µM"
chemsmiles=Nc1nc2c(-c3nccc4c3sc3nc(OC[C@@]56CCCN5C[C@H](F)C6)nc(N5C[C@H]6CC[C@@H](C5)N6)c34)c(F)cc(F)c2o1 observedproperty=IC50 reportedresult="> 11.1 µM"

Lookup: Consider the compound C#Cc1c(F)ccc2cc3[nH]ncc3c(-c3nccc4c3sc3nc(OC[C@]5(CN6CC7(CCOC7)C6)CC5(F)F)nc(N5C[C@H]6CC[C@@H](C5)N6)c34)c12 and give its recorded IC50.
Found: 0.399 µM

Lookup: Give IC50 for the following compound: Cc1cc(N)nc(-c2nccc3c4c(N5C[C@H]6CC[C@@H](C5)N6)nc(OC[C@@]56CCCN5C[C@H](F)C6)nc4n(C)c23)c1C(F)(F)F
Found: > 11.1 µM

Lookup: Give a short answer stating reported IC50 for Cc1cc2[nH]ncc2c(-c2nccc3c2sc2nc(OC[C@]4(C#N)C[C@H]4S(C)(=O)=O)nc(N4C[C@H]5CC[C@@H](C4)N5)c23)c1C(F)(F)F .
Found: > 11.1 µM

Lookup: Look up and report measured IC50 for this entry: C#Cc1c(F)ccc2cc3[nH]ncc3c(-c3nccc4c3sc3nc(OCC5(C(F)(F)F)CCOCC5)nc(N5C[C@H]6CC[C@@H](C5)N6)c34)c12
Found: > 11.1 µM

Lookup: Provide one value: measured IC50 of Cc1cc2[nH]ncc2c(-c2nccc3c2sc2nc(OC[C@]4(CO)CC4(F)F)nc(N4C[C@H]5CC[C@@H](C4)N5)c23)c1OC(F)F
Found: > 11.1 µM

Lookup: Give the value of IC50 reported for the following: Cn1c2nc(OC[C@]3(CO)CC3(F)F)nc(N3C[C@H]4CC[C@@H](C3)N4)c2c2ccnc(-c3ccc(F)c4sc(N)c(C#N)c34)c21
Found: > 11.1 µM

Lookup: # return recorded IC50 for entry CN(C)C[C@@]1(COc2nc(N3C[C@H]4CC[C@@H](C3)N4)c3c(n2)sc2c(-c4c(C5CC5)c(Cl)cc5[nH]ncc45)nccc23)CC1(F)F
Found: 2.8 µM

Lookup: Report IC50, nothing else, for this compound: N#Cc1c(N)sc2c(F)ccc(-c3nccc4c3sc3nc(OC[C@@]56CCCN5C[C@H](F)C6)nc(N5C[C@H]6CC[C@@H](C5)N6)c34)c12
Found: > 11.1 µM

Lookup: Give IC50 for the following compound: Fc1ccc2cc3[nH]ncc3c(-c3nccc4c3sc3nc(OC[C@@]56CCCN5C[C@H](F)C6)nc(N5C[C@H]6CC[C@@H](C5)N6)c34)c2c1Cl
Found: 1.65 µM
